# EXPERIMENTAL_TARGET: Guanine nucleotide-binding protein G(i) subunit alpha-3 (Rattus norvegicus)
# TEST_METHOD_NOTES: GIV-Galphai3 interaction disruptors, retest – biochemical, fluorescence polarization, FITC-GIV peptide, rat Galphai3, confirmation (AID 1259350);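 also: lower mP means peptide displaced from Galphai3 so more inhibition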
# MEASUREMENT_SETUP: FITC-GIV peptide binding to Galphai3, fluorescence polarization; at 100 µM; active compounds read low
The other results are listed elsewhere or left out. The source made the active and inactive calls.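 The calls were made as follows: active = inhibition score of 15 or more, meaning 100 minus mean polarization as percent of control over three replicates; inactive = the rest.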
Measured fluorescence polarization, listed per entry.

{"SMILES_CODE": "O=C(O)c1cc(NS(=O)(=O)c2ccc3c(c2)CCCC3)cnc1N1CCOCC1", "PROPERTY": "fluorescence polarization", "RESULT": "43 mP (active)"}
{"SMILES_CODE": "COc1ccccc1N1C(=O)/C(=C/c2ccc(Cl)cc2)C=C1c1ccccc1", "PROPERTY": "fluorescence polarization", "RESULT": "77.8 mP (inactive)"}

We now examine a further compound.
query: Identify measured fluorescence polarization associated with `Cc1ccc(C(=O)N2CCc3cc(CNC(=O)c4ccc(Br)cc4)ccc32)cc1`
result: 85.2 mP (inactive)

====

# EXPERIMENTAL_TARGET: Guanine nucleotide-binding protein G(i) subunit alpha-3 (Rattus norvegicus)
# TEST_METHOD_NOTES: GIV-Galphai3 interaction disruptors, retest – biochemical, fluorescence polarization, FITC-GIV peptide, rat Galphai3, confirmation (AID 1259350);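 also: lower mP means peptide displaced from Galphai3 so more inhibition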
# MEASUREMENT_SETUP: FITC-GIV peptide binding to Galphai3, fluorescence polarization; at 100 µM
The list shows a part of the results. The source made the active and inactive calls.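 The calls were made as follows: active = inhibition score of 15 or more, meaning 100 minus mean polarization as percent of control over three replicates; inactive = the rest.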
Give your call using only these classes: YES = active, NO = inactive

{"COMPOUND": "O=C(NN=c1c(=O)c2ccccc2c1=O)c1ccncc1", "EXPERIMENTAL_TARGET": "Guanine nucleotide-binding protein G(i) subunit alpha-3 (Rattus norvegicus)", "CATEGORY": "NO"}
{"COMPOUND": "CCC(=O)N1CCc2cc(N3CC(C(=O)N4CCN(C(C)C)CC4)CC3=O)ccc21 (stereo unspecified)", "EXPERIMENTAL_TARGET": "Guanine nucleotide-binding protein G(i) subunit alpha-3 (Rattus norvegicus)", "CATEGORY": "YES"}
{"COMPOUND": "COC1=C(N2CCOCC2)C(=O)c2ccccc2C1=O", "EXPERIMENTAL_TARGET": "Guanine nucleotide-binding protein G(i) subunit alpha-3 (Rattus norvegicus)", "CATEGORY": "NO"}
{"COMPOUND": "CCOC(=O)C1=C(C)N(c2ccc(OC)cc2)C(=O)/C1=C\\c1ccco1", "EXPERIMENTAL_TARGET": "Guanine nucleotide-binding protein G(i) subunit alpha-3 (Rattus norvegicus)", "CATEGORY": "NO"}
{"COMPOUND": "CCOC(=O)c1nc2cc(C)c(C)cc2nc1NC1CCCCC1", "EXPERIMENTAL_TARGET": "Guanine nucleotide-binding protein G(i) subunit alpha-3 (Rattus norvegicus)", "CATEGORY": "NO"}
{"COMPOUND": "Cc1ccc(NC(=O)c2nc[nH]c2C(=O)N2CCCCC2)c(C(=O)c2ccccc2)c1", "EXPERIMENTAL_TARGET": "Guanine nucleotide-binding protein G(i) subunit alpha-3 (Rattus norvegicus)", "CATEGORY": "YES"}
{"COMPOUND": "Cn1cccc1/C=C1\\C(=O)NC(=S)N(c2ccccc2)C1=O", "EXPERIMENTAL_TARGET": "Guanine nucleotide-binding protein G(i) subunit alpha-3 (Rattus norvegicus)", "CATEGORY": "YES"}
{"COMPOUND": "N#CSc1cc(SC#N)c(N)nc1N", "EXPERIMENTAL_TARGET": "Guanine nucleotide-binding protein G(i) subunit alpha-3 (Rattus norvegicus)", "CATEGORY": "YES"}

query: Entry `CC(=O)Oc1cccc2c1C(=O)C=CC2=O` : call = ?
result: NO

query: Entry O=C(O)CCC(C(=O)O)N1C(=O)/C(=C\c2ccco2)SC1=S (stereo unspecified) : call = ?
result: YES

query: Entry `O=C(O)c1c2ccccc2[nH]c2c1oc1cc(=O)ccc12` : call = ?
result: NO
